Origin of values: ChEMBL document CHEMBL3400045

# tested.on: Broad substrate specificity ATP-binding cassette transporter ABCG2 (Homo sapiens, UniProt Q9UNQ0)
# Sequence (Q9UNQ0 whole entry): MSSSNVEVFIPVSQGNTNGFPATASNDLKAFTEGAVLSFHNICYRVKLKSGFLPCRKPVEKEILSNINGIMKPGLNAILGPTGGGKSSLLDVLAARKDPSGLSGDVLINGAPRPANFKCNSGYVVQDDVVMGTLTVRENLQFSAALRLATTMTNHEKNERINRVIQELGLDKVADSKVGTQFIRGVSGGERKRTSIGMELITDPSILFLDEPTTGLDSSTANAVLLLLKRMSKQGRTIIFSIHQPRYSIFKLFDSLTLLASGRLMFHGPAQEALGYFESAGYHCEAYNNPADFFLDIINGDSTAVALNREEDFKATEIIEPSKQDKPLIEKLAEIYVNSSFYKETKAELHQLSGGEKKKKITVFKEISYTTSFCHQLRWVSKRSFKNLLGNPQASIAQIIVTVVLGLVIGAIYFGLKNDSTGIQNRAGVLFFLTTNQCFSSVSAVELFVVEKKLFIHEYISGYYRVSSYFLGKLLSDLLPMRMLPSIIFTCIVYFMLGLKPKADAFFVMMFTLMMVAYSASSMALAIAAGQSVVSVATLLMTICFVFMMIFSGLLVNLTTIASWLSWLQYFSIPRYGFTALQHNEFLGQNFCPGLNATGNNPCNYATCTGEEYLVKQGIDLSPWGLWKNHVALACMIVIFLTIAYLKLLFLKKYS
# assay.info: Inhibition of ABCG2 (unknown origin) transfected in Flp-In-293 cells assessed as inhibition of Hoechst 33342 efflux after 90 mins by flow cytometry
# Format: cell-based
# measurement.parameters: 1.5 h

- compound.structure.string: "C=CC(C)(C)[C@@]12C[C@H]3c4nc5ccc(C#N)cc5c(=O)n4[C@H](C)C(=O)N3[C@@H]1N(C(C)=O)c1ccccc12"
  inhibition (INH): "Active"
- compound.structure.string: "C=CC(C)(C)[C@@]12C[C@H]3c4nc5ccc(F)cc5c(=O)n4[C@H](C)C(=O)N3[C@@H]1N(C(C)=O)c1ccccc12"
  inhibition (INH): "Active"
- compound.structure.string: "C=CC(C)(C)[C@@]12C[C@H]3c4nc5ccc(Cl)cc5c(=O)n4[C@H](C)C(=O)N3[C@@H]1N(C(C)=O)c1ccccc12"
  inhibition (INH): "Active"
